measurement-target: T1, extracellular domain of human KLB expressed with C-terminal HA and hexahistidine tags (human, UniProt Q86Z14 1-996)
T1 construct: also called hKLB-HA-6His; hKLB-HA-6his
T1 sequence: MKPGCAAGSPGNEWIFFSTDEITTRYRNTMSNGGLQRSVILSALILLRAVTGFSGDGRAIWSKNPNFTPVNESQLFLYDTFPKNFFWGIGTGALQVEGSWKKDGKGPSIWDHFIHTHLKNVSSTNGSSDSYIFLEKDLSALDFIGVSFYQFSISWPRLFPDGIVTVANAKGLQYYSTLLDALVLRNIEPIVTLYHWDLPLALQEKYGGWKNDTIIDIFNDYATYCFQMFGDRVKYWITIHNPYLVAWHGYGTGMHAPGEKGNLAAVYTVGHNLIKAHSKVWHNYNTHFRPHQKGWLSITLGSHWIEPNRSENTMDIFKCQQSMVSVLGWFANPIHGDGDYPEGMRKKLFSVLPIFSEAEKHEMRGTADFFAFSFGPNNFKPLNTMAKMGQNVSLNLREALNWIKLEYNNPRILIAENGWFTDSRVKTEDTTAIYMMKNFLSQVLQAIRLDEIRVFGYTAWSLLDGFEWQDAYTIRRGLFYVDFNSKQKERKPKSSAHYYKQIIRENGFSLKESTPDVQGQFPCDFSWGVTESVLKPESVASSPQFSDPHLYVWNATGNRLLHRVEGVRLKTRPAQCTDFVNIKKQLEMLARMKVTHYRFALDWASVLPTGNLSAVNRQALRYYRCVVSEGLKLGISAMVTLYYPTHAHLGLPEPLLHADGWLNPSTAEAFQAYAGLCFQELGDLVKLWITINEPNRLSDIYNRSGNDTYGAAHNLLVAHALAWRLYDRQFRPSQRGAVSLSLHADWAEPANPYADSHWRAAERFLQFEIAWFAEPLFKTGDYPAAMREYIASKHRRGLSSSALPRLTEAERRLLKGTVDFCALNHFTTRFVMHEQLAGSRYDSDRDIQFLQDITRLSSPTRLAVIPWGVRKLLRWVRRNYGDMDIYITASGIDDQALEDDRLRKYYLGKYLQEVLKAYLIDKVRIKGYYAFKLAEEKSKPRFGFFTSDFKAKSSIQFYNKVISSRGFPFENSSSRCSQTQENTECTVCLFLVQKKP
assay-name: SPR, mAb captured, 25 C
I'd be grateful if you could share measured t1/2 for these entries.
Number plus unit, in that order.

Reference set (2 entries):
binder: H4H8881P (antibody, V domains shown, human IgG4 Fc (H4H prefix)) VH: QVQLVQSGAEVKKPGASVKVSCKASGYTFTSYVIHWVRQAPGQRLEWMGWSNAANGDTKYSQEFQDRVTFTRDTSASTAYMELSSLRSEDMAVYYCARWNWNYGAFDIWGQGTMVTVSS VL: DIQMTQSPSSLSASVGDRVTITCQASQDINNYLHWYQQKSGKAPNLLIYDASILETGVPSRFSGSGSGTDFTFTISSLQPEDIATYYCQQYDNLPYTFGQGTKLEIK
t1/2: 1.08 h

binder: H4H8880P (antibody, V domains shown, human IgG4 Fc (H4H prefix)) VH: EVQLVESGGGVVQPGGSLRLSCAASGFTFSLYAMSWVRQAPGKGLEWVSAISGSAHGAYYADSVKGRFTISRDNSKNSLYLQMNSLRAEDTAIYYCAKDLVIAVAGTFDYWGQGTLVTVSS VL: DIQMTQSPSSLSASVGDRVTITCRASQIISTYLNWYQQKPGKAPKILIYTASSLKSGVPSRFSGSGSGTDFTLTISSLQPEDFATYYCQQTYSSPRFTFGPGTKVDIK
t1/2: 0.672 h

Req: Indicate the recorded t1/2 value for this binder: H4H8837P (antibody, V domains shown, human IgG4 Fc (H4H prefix)) VH: QVQLVESGGGVVQPGRSLRLSCAASGFTFNSYAMHWVRQAPGMGLEWVAVISSDGSNKYYADSVRGRFTVSRDNSKNTLYLQMNSLRSEDTAVYYCAKDGRGYSSFSHFGMDVWGQGTTVTVSS VL: DIQMTQSPSTLSASVGDRVTITCRASQSIGSWLAWYQQKPGKAPKLLIYKTSSLESGVPSRFSGSGSGTEFTLTISSLQPDDFASYYCQQYNSYSFGQGTKVEIK
Resp: 1.5 h
